Test: Cytotoxicity in Huh7 cells (ATP levels, Cell-Titer GLO)
Conditions: human, Huh7 hepatocyte-derived carcinoma cells
observation_type: viability at 72 h, 100 µM

Qu. Please supply the value of reported viability at 72 h, 100 µM for the item CO[C@@H]1C=C[C@@]23c4cc5c(cc4CN(CCc4ccc(O)cc4)[C@@H]2C(=O)N(C)[C@H]3C1)OCO5
Ans. 82.6%

###

Test: in vitro
Details: human
# reported viability at 72 h, 50 µM; entries follow
Output spec: scalar in %, unitless text.

Qu. Please report the measured viability at 72 h, 50 µM for CO[C@@H]1C=C[C@@]23c4cc5c(cc4CO[C@]2(O)CN(C)[C@H]3C1)OCO5 [Tazettine]
Ans. 85.2

Qu. Return the recorded viability at 72 h, 50 µM value; entry: OC1C=CC23c4cc5c(cc4CN(CC2O)C3C1)OCO5 (centres unmarked) [11-Hydroxyvittatine]
Ans. 73.8

###

Let's look at some compounds and their measured concentration at which Huh7 cell viability is reduced.
Tested on: Huh7 cells
Test: Cytotoxicity in Huh7 cells (ATP levels, Cell-Titer GLO)
Settings: 72 h
# number only, unit µM dropped from output

Qu. Please report concentration at which Huh7 cell viability is reduced for the following compound: OC1C=C2C3CN(Cc4cc5c(cc43)OCO5)C2CC1O (centres unmarked) [Pancracine]
Ans. 6.25

Qu. Give me measured concentration at which Huh7 cell viability is reduced, please, for this compound: CO[C@@H]1C=C[C@@]23c4cc5c(cc4CN(CCc4ccc(O)cc4)[C@@H]2C(=O)N(C)[C@H]3C1)OCO5 [Obliquine]
Ans. 100

Here is another compound to look at.
Qu. Tell me concentration at which Huh7 cell viability is reduced reported for CO[C@@H]1C=C[C@@]23c4cc5c(cc4C(O)N(C[C@@H]2O)[C@H]3C1)OCO5 (some centres unmarked) [Haemanthidine]
Ans. 6.25

###

System: DENVGFP
Test: microbe, parasite or virus in culture
Format: cell-based, dengue virus
Conditions: read-out: EC50 DENVGFP; Huh7 cells, MOI = 0.02, 72 h
observation_type: EC50 (µM)
Please reply with the bare figure in µM and do not write the unit itself.

Some compounds with known EC50 results, for comparison:
Qu. Report value: EC50, system: DENVGFP, compound: O[C@H]1[C@H]2c3cc4c(cc3CN3CCC(=C[C@@H]1O)[C@H]23)OCO4 [Lycorine]
Ans. 0.39

Qu. Fill: EC50 (DENVGFP) for this compound COc1cc2c(cc1OC)[C@H]1[C@H]3C(=CC[C@H]1OC2=O)CCN3C [Homolycorine]
Ans. 65

Qu. Provide DENVGFP EC50 reading for OC1C=C2C3CN(Cc4cc5c(cc43)OCO5)C2CC1O (stereo not shown) [Pancracine] .
Ans. 0.36

Here is the next item to consider.
Qu. Write down measured EC50 (DENVGFP) for this compound. CO[C@@H]1C=C[C@@]23c4cc5c(cc4CN(CCc4ccc(O)cc4)[C@@H]2C(=O)N(C)[C@H]3C1)OCO5 [Obliquine]
Ans. 73.6

###

Tested on: AGS cells
Assay: MTT viability test, AGS cells
Type: cell-based
Details: Homo sapiens, AGS, 24 h, read-out: IC50 AGS cells at 24 h
observation_type: IC50 (µM)
Give just the number in µM; leave the unit off.

Qu. GET IC50 | system: AGS cells | item: COC1C=CC23c4cc5c(cc4CN(CC2O)C3C1)OCO5 (stereo not shown) [Haemanthamine]
Ans. 7.5

###

Listing: CC50 at 72 h of selected molecules
Assay: Cytotoxicity in THP-1 cells (ATP levels, Cell-Titer GLO)
Conditions: human, CC50 THP-1, 72 h, ATP levels
// note: answer is a bare numeric in µM

Qu. Give the reported value of CC50 at 72 h for this record: OC1C=C2C3CN(Cc4cc5c(cc43)OCO5)C2CC1O (stereo not drawn)
Ans. 25.9

More entries:
Qu. In one line, give reported CC50 at 72 h of the entry OC1C=CC23c4cc5c(cc4CN(CC2O)C3C1)OCO5 (stereo not drawn) [11-Hydroxyvittatine] .
Ans. 113

Qu. Dear colleague, please send me the reported CC50 at 72 h for COC1C=CC23c4cc5c(cc4CN(CC2O)C3C1)OCO5 (stereo not drawn) when you can.
Ans. 22.2

Qu. Supply reported CC50 at 72 h belonging to this molecule: CO[C@@H]1C=C[C@@]23c4cc5c(cc4CO[C@]2(O)CN(C)[C@H]3C1)OCO5
Ans. 137

Qu. Tell me measured CC50 at 72 h for CO[C@@H]1C=C[C@@]23c4cc5c(cc4C(O)N(C[C@@H]2O)[C@H]3C1)OCO5 (stereo partly drawn) please.
Ans. 16.8

Qu. Consider the molecule CO[C@@H]1C=C[C@@]23c4cc5c(cc4CN(CCc4ccc(O)cc4)[C@@H]2C(=O)N(C)[C@H]3C1)OCO5 . State its measured CC50 at 72 h.
Ans. 127

###

Assay: Cytotoxicity in THP-1 cells (ATP levels, Cell-Titer GLO)
Conditions: human
observation_type: viability at 72 h, 100 µM (%)
Field format: number, assumed %, no unit text.

Look over these answered cases.
Qu. Respond only with viability at 72 h, 100 µM recorded for CO[C@@H]1C=C[C@@]23c4cc5c(cc4CN(CCc4ccc(O)cc4)[C@@H]2C(=O)N(C)[C@H]3C1)OCO5
Ans. 55.3

Qu. Identify viability at 72 h, 100 µM associated with the compound CO[C@@H]1C=C[C@@]23c4cc5c(cc4CO[C@]2(O)CN(C)[C@H]3C1)OCO5
Ans. 60.9

From here, focus on the item given below.
Qu. Name the recorded viability at 72 h, 100 µM of the item OC1C=CC23c4cc5c(cc4CN(CC2O)C3C1)OCO5 (stereo not drawn) [11-Hydroxyvittatine] in your answer.
Ans. 52.3

###

Items are presented alongside their recorded pEC50.
System: VSV-G-pseudotyped HIV-1GFP
Assay: cells
Assay type: cell-based, human immunodeficiency virus-1
Conditions: Homo sapiens, THP-1, 72 h, read-out: EC50 HIVGFP
Scale: negative log10 of molar concentration, which is what pEC50 denotes.

Qu. Tell me pEC50 reported for OC1C=CC23c4cc5c(cc4CN(CC2O)C3C1)OCO5 (stereo not shown) [11-Hydroxyvittatine]
Ans. 4.19

Qu. Identify measured pEC50 associated with COC1C=CC23c4cc5c(cc4CN(CC2O)C3C1)OCO5 (stereo not shown)
Ans. 4.60

Qu. Read the entry O[C@H]1[C@H]2c3cc4c(cc3CN3CCC(=C[C@@H]1O)[C@H]23)OCO4 and write its reported pEC50.
Ans. 4.96

Qu. Answer with the recorded pEC50 of CO[C@@H]1C=C[C@@]23c4cc5c(cc4CO[C@]2(O)CN(C)[C@H]3C1)OCO5 only.
Ans. 3.92

Further cases:
Qu. Recall and state the measured pEC50 for CO[C@@H]1C=C[C@@]23c4cc5c(cc4CN(CCc4ccc(O)cc4)[C@@H]2C(=O)N(C)[C@H]3C1)OCO5 .
Ans. 3.82

Qu. Give pEC50 for the following molecule: CO[C@@H]1C=C[C@@]23c4cc5c(cc4C(O)N(C[C@@H]2O)[C@H]3C1)OCO5 (stereo partly shown)
Ans. 4.90

Qu. For the molecule OC1C=C2C3CN(Cc4cc5c(cc43)OCO5)C2CC1O (stereo not shown) , give its reported pEC50.
Ans. 4.73
